- SYSTEM: human TLR9 (Homo sapiens, UniProt Q9NR96)
- Construct: host or cells: HEK-Blue cells
- Sequence (Q9NR96 26-1032): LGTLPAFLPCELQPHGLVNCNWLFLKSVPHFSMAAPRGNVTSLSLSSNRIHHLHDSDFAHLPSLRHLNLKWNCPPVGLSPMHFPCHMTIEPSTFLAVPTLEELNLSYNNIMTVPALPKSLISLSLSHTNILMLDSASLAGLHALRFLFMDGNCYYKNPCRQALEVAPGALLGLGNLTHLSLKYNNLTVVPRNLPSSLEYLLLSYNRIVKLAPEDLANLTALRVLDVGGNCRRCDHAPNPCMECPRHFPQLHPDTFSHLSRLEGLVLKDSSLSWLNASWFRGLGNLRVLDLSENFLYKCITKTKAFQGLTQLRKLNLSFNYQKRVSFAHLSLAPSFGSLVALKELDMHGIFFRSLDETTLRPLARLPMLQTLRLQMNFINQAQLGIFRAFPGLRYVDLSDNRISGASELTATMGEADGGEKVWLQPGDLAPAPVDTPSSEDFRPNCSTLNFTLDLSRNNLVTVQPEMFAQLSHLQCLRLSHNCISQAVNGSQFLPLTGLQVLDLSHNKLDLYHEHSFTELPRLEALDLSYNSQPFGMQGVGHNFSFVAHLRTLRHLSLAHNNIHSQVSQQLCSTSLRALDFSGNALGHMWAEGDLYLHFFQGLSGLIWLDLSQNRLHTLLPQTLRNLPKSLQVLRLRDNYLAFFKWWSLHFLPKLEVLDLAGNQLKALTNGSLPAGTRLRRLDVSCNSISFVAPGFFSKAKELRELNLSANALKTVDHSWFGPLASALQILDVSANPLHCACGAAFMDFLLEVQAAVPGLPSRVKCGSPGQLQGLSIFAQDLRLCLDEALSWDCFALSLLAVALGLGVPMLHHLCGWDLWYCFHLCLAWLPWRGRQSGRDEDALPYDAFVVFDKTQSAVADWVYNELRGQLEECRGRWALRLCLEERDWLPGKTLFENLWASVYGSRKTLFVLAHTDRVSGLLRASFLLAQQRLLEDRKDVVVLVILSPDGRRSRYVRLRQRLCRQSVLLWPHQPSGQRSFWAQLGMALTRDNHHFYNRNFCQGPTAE
- PROTOCOL_SUMMARY: TLR9 inhibition reporter assay (HEK-Blue cells, SEAP reporter, ODN2006 stimulation)
- Assay type: cell-based
- RUN_CONDITIONS: HEK-Blue cells overexpressing human TLR9, SEAP reporter, ODN2006 5 nM
EXPERIMENTAL_ENDPOINT: log10 IC50 (log10 of the value in µM)
Scale type: logarithmic (base 10). Underlying IC50 unit: µM.

Given item COc1cc(-c2[nH]c3sc(C4CCN(C(=O)CN(C)C)CC4)nc3c2C(C)C)cn2ncnc12 , the value recorded as its log10 IC50 is 0.04

Given item Cc1cc(-c2[nH]c3sc(C4CCC(NCC5(CO)CC5)CC4)nc3c2C(C)C)cn2ncnc12 (single isomer, unassigned) [Example 142] , the value recorded as its log10 IC50 is 0.84

Given item Cc1c(-c2[nH]c3sc(C4CCC(N(C)CC(C)C)CC4)nc3c2C(C)C)cn2ncnc2c1C (single isomer, unassigned) [Example 229] , the value recorded as its log10 IC50 is 0.70

Given item Cc1c(-c2[nH]c3sc(N4CCN(C)C[C@H]4C)nc3c2C(C)C)cn2ncnc2c1C , the value recorded as its log10 IC50 is 1.29

Given item CC(C)c1c(-c2cn(C)c3ncccc23)[nH]c2sc(C3CCC(NCC(C)(C)O)CC3)nc12 (single isomer, unassigned) [Example 183] , the value recorded as its log10 IC50 is 0.83

Given item COc1cc(-c2[nH]c3sc(C4CCC(NC(=O)CNCC(C)C)CC4)nc3c2C(C)C)cn2ncnc12 (stereo not shown) , the value recorded as its log10 IC50 is 1.16

Given item Cc1cc2ncnn2cc1-c1[nH]c2sc(C3CCC(N(C)C(C)C)CC3)nc2c1C(C)C (single isomer, unassigned) [Example 159] , the value recorded as its log10 IC50 is 0.84

Each recorded value in this set is attributed to patent US20230139171A1.
